TARGET UNDER TEST: CDK9/cyclin T complex (Homo sapiens)
Construct: purchased Proqinase GmbH, Germany
Sequence (P50750 whole entry): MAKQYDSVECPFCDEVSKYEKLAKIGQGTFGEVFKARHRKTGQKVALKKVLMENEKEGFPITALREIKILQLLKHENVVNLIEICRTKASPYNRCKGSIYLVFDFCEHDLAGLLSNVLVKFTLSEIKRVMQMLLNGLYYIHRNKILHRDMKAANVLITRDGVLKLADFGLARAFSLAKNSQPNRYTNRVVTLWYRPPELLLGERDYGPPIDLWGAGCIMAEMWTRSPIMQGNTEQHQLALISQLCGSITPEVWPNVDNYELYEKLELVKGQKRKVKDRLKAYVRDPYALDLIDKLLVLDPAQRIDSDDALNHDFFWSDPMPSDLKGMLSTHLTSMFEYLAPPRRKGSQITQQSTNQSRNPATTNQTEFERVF
Sequence (O60563 whole entry partner): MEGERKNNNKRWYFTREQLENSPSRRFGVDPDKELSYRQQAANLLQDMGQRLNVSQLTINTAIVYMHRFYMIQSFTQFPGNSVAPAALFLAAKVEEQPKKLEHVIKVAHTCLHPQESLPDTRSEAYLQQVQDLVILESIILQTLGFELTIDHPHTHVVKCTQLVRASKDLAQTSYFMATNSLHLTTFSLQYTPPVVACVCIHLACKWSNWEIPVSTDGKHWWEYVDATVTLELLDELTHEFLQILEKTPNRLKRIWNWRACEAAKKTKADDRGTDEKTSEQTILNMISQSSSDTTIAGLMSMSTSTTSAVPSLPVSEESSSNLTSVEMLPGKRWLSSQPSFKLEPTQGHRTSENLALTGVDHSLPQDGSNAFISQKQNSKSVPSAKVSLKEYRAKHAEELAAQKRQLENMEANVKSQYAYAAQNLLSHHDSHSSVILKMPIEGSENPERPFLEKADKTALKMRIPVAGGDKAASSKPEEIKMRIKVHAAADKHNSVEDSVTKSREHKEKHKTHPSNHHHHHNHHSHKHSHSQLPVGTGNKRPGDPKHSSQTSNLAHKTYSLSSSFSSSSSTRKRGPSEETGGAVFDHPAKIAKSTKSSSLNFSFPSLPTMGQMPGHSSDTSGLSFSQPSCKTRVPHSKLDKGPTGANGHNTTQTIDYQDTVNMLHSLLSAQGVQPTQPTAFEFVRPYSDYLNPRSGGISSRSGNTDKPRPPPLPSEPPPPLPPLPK
MEASUREMENT DESCRIPTION: CDK9/cyclin T kinase assay (as for CDK7)
Assay type: biochemical
EXPERIMENTAL CONTEXT: 100 nM; mean of three (standard deviation); read-out: CDK9 % remaining kinase activity after incubation with 100 nM of compound
Please provide measured remaining activity at 0.1 µM for the entries that follow.
Give bare numbers, in %.

Use these answered entries as a reference point.
* C=C[C@H](CO)Nc1cc(NCc2ccccc2)n2ncc(C(C)C)c2n1 | 100
* CC(C)c1cnn2c(NCc3ccccc3F)cc(NC(CO)CO)nc12 | 63
* CC(C)c1cnn2c(NCc3ccccc3F)cc(NCCO)nc12 | 78
* CC(C)c1cnn2c(NCc3ccccc3F)cc(NCCCCCCC#N)nc12 | 98

Would you kindly look at the next entry?
What value of remaining activity at 0.1 µM has been recorded for this entry: CC(C)c1cnn2c(NCc3ccccc3F)cc(N[C@@H](CO)CCCCCCN)nc12
85
